Measured values drawn from PubChem BioAssay (NCI) for this set.

- System: UO-31 renal
- protocol text: NCI-60 one-dose screen, 48 h (100 = growth as untreated, 0 = no growth, -100 = all killed)
- experimental setup: 10 µM unless noted
Compounds without any hit were thinned out: in the full panel of roughly 83,000, 20% have a hit.
// reported growth for each item listed
Please state the figure in %; there is no need to write the unit.

Use the examples below as a reference point.
Recall and state the measured growth for `Cc1ccc(Cc2cnc(NC(=O)CN3C(=O)/C(=C\c4ccccc4)SC3=S)s2)cc1` .
89.4

Recall and state the measured growth for `FC(F)(F)c1cccc(Nc2nc3ccccc3nc2Nc2cccc(C(F)(F)F)c2)c1` .
-74.7

Recall and state the measured growth for `COc1ccc2c(c1)C=C1CSCC3=Cc4cc(OC)ccc4OC13O2` .
44.5

Recall and state the measured growth for O=C(c1nc2ccccc2[nH]1)C1[C@@H](c2cccc(O)c2)C2CC3CCCCC3N2[C@@]12C(=O)Nc1cc(Cl)ccc12 (stereo partly drawn) .
33.5

Recall and state the measured growth for CCCCC1COc2cccc3c2N1C=C/C3=C\C(=O)N(C)c1ccccc1 (stereo not drawn) .
59.3

Next:
Recall and state the measured growth for `CN1CCN(c2nc(Nc3ccc(O)cc3)nc3ccccc23)CC1` .
57.3

Recall and state the measured growth for `CCCCNc1nc(NC(C)(C)C)nc(NC(C)(C)C)n1` .
37.4

Recall and state the measured growth for `COc1cccc(/C(C#N)=C/c2nc3c(N4CCOCC4)nc(Cl)nc3n2C)c1` .
-95.9
